- Target Desc: human glycine transporter-2 (GlyT2) (Homo sapiens, UniProt Q9Y345)
- Construct: The entire coding region of the human GlyT2 cDNA was cloned into the mammalian expression vector pCINeo
- Method: GlyT2 inhibitory activity: inhibition of [14C]-glycine uptake in COS-7 cells transfected with human GlyT2
- Assay Setup: Cos-7 cells stably transfected with human GlyT2; 20 μM 14C-glycine, 2 h at 37° C.
Parameter Measured: pIC50
The value called pIC50 is obtained by taking minus log10 of the concentration in mol/L.

Some compounds with recorded pIC50:
CC(C)Oc1ccccc1NCCNCc1cccc(C(=O)N2CCCCC2)c1 [Example 1]	6.40
CC(C)Nc1ccccc1NCCNCc1cccc(C(=O)N2CCCCC2)c1 [Example 13]	6.26
O=C(c1cccc(CNCCNc2ccccc2Br)c1)N1CCCCC1 [Example 17]	6.00

Q. Can you look up pIC50 on human glycine transporter-2 (GlyT2) (Homo sapiens, UniProt Q9Y345) for CC(C)Oc1cccc(NCCN(C)Cc2cccc(C(=O)N3CCCCC3)c2)c1 [Example 30] ?
A. 6.00

Q. What is its pIC50 for human glycine transporter-2 (GlyT2) (Homo sapiens, UniProt Q9Y345)? Entry: O=C(c1cccc(CNCCNc2cccc(Cl)c2)c1)N1CCCCC1 [Example 20]
A. 5.51

Q. Missing value: pIC50, human glycine transporter-2 (GlyT2) (Homo sapiens, UniProt Q9Y345), entry COc1cccc(NCCNCc2cccc(C(=O)N3CCCCC3)c2)c1 [Example 9] . Fill in?
A. 6.10

Q. Item: CC(C)Oc1ccccc1OCCCNCc1cccc(C(=O)N2CCCCC2)c1 [Example 25] Test system: human glycine transporter-2 (GlyT2) (Homo sapiens, UniProt Q9Y345) Read-out: pIC50 Value: ?
A. 6.40

----------
- Target Desc: human glycine transporter-2 (GlyT2) (Homo sapiens, UniProt Q9Y345)
- Construct: The entire coding region of the human GlyT2 cDNA was cloned into the mammalian expression vector pCINeo
- Method: GlyT2 inhibitory activity: inhibition of [14C]-glycine uptake in COS-7 cells transfected with human GlyT2
- Assay Setup: Cos-7 cells stably transfected with human GlyT2; 20 μM 14C-glycine, 2 h at 37° C.
The entries below are paired with their reported IC50.

// known answers, use as guide
O=C(c1cccc(CNCCNc2ccccc2-c2ccsc2)c1)N1CCCCC1 [Example 23]	0.955 µM
Nc1ccccc1NCCNCc1cccc(C(=O)N2CCCCC2)c1 [Example 12]	> 10 µM
CC(C)Oc1ccccc1CCCNCc1cccc(C(=O)N2CCCCC2)c1 [Example 33]	4 µM

Q. What is its IC50 for human glycine transporter-2 (GlyT2) (Homo sapiens, UniProt Q9Y345)? Entry: CC(C)Oc1ccccc1NCCNCc1cccc(C(=O)N2CCCC2)c1 [Example 38]
A. 3 µM

----------
- Target Desc: human glycine transporter-2 (GlyT2) (Homo sapiens, UniProt Q9Y345)
- Construct: The entire coding region of the human GlyT2 cDNA was cloned into the mammalian expression vector pCINeo
- Method: GlyT2 inhibitory activity: inhibition of [14C]-glycine uptake in COS-7 cells transfected with human GlyT2
- Assay Setup: Cos-7 cells stably transfected with human GlyT2; 20 μM 14C-glycine, 2 h at 37° C.
Here the recorded pIC50 is given for each entry.
Convention used: pIC50 is expressed as -log10 of the molar concentration.

Here are 5 compounds together with their reported answers.
COc1ccccc1NCCNCc1cccc(C(=O)N2CCCCC2)c1	5.60
CC(C)Oc1ccccc1OCCNCc1cccc(C(=O)N2CCCCC2)c1	6.40
O=C(c1cccc(CNCCNc2ccccc2O)c1)N1CCCCC1	4.70
CC(C)Oc1ccccc1NCCNCc1cccc(C(=O)N2CCCCCC2)c1	5.74
O=C(c1cccc(CNCCNc2ccccc2Oc2ccccc2)c1)N1CCCCC1	5.52

Q. Query (compound): `CC(C)Oc1ccccc1NCCCNCc1cccc(C(=O)N2CCCCC2)c1` ; field requested: pIC50
A. 5.40

Q. Returns the measured pIC50 for the input compound. Input: `O=C(NCc1ccccc1)Nc1ccccc1NCCNCc1cccc(C(=O)N2CCCCC2)c1`
A. 5.51

----------
Some compounds, each annotated with its measured log10 IC50.
- Target Desc: human glycine transporter-2 (GlyT2) (Homo sapiens)
- Construct: The entire coding region of the human GlyT2 cDNA was cloned into the mammalian expression vector pCINeo
- Sequence (Q9Y345 1-797): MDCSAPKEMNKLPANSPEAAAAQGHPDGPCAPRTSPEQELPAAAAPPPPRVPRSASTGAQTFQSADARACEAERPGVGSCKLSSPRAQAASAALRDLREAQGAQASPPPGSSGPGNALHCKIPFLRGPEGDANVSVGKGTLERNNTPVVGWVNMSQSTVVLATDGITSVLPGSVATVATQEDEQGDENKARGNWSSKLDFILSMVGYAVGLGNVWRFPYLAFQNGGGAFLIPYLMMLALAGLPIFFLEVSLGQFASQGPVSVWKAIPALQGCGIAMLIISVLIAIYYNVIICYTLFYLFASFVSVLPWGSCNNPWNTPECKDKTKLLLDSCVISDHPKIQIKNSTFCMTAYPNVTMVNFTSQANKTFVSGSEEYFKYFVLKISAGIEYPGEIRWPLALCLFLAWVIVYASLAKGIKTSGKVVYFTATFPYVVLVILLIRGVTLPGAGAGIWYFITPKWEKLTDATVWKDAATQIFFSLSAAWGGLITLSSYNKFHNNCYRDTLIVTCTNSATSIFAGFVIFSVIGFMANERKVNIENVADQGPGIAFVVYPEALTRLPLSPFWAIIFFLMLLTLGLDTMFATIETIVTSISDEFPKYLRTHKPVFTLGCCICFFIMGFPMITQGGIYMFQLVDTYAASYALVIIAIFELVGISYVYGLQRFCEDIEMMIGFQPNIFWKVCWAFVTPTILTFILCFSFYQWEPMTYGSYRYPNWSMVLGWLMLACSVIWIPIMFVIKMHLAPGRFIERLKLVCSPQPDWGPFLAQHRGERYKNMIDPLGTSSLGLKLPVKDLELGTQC
- Method: GlyT2 inhibitory activity: inhibition of [14C]-glycine uptake in COS-7 cells transfected with human GlyT2
- Assay Setup: Cos-7 cells stably transfected with human GlyT2; 20 μM 14C-glycine, 2 h at 37° C.
- Experimental: GlyT2 antagonist activity of representative compounds of the invention was determined in accordance with the assay described in the Examples and by measuring the ability of compounds to inhibit the uptake of [^14C]-glycine in COS-7 cells transfected with the human glycine transporter-2 (GlyT2). The GlyT2 antagonist activities of these representative compounds are set forth hereinafter in Table 1. […]
Use the decimal logarithm of IC50 (µM).

O=C(c1cccc(CNCCNc2ccccc2Cl)c1)N1CCCCC1 [Example 19]	0.08
CC(C)Oc1cccc(OCCNCc2cccc(C(=O)N3CCCCC3)c2)c1 [Example 26]	0.88
CC(C)Nc1ccccc1NCCNCc1cc(C(=O)N2CCCCC2)cs1 [Example 36]	0.49
O=C(c1cccc(CNCCNc2ccccc2[N+](=O)[O-])c1)N1CCCCC1 [Example 11]	0.70
CC(C)Oc1ccccc1N(C)CCNCc1cccc(C(=O)N2CCCCC2)c1 [Example 28]	0.54

Q. Look up log10 IC50 for this compound: CC(C)Oc1cccc(NCCNCc2cccc(C(=O)N3CCCCC3)c2)c1 [Example 10]
A. 0.00

Q. What measured log10 IC50 goes with CC(C)Oc1ccccc1NCCN(C)Cc1cccc(C(=O)N2CCCCC2)c1 [Example 27] ?
A. 1.04

Q. log10 IC50 lookup needed for CC(C)c1ccccc1NCCNCc1cccc(C(=O)N2CCCCC2)c1 [Example 21] , thanks.
A. 0.40

Q. Any idea what log10 IC50 was measured for CC(C)Oc1cccc(N(C)CCN(C)Cc2cccc(C(=O)N3CCCCC3)c2)c1 [Example 31] ?
A. 0.20

Q. Quick one: log10 IC50 for CC(C)Oc1ccccc1NCCNCc1cc(C(=O)N2CCCCC2)cs1 [Example 34] ?
A. 0.49

----------
- Target Desc: human glycine transporter-2 (GlyT2) (Homo sapiens, UniProt Q9Y345)
- Construct: The entire coding region of the human GlyT2 cDNA was cloned into the mammalian expression vector pCINeo
- Method: GlyT2 inhibitory activity: inhibition of [14C]-glycine uptake in COS-7 cells transfected with human GlyT2
- Assay Setup: Cos-7 cells stably transfected with human GlyT2; 20 μM 14C-glycine, 2 h at 37° C.
Reported IC50 values for the following compounds.
Lab book: enter the figure in µM, no units written.

Q. So what does the record say about IC50 for `CS(=O)(=O)Nc1ccccc1NCCNCc1cccc(C(=O)N2CCCCC2)c1` ?
A. 3.1

----------
- Target Desc: human glycine transporter-2 (GlyT2) (Homo sapiens, UniProt Q9Y345)
- Construct: The entire coding region of the human GlyT2 cDNA was cloned into the mammalian expression vector pCINeo
- Sequence (Q9Y345 1-797): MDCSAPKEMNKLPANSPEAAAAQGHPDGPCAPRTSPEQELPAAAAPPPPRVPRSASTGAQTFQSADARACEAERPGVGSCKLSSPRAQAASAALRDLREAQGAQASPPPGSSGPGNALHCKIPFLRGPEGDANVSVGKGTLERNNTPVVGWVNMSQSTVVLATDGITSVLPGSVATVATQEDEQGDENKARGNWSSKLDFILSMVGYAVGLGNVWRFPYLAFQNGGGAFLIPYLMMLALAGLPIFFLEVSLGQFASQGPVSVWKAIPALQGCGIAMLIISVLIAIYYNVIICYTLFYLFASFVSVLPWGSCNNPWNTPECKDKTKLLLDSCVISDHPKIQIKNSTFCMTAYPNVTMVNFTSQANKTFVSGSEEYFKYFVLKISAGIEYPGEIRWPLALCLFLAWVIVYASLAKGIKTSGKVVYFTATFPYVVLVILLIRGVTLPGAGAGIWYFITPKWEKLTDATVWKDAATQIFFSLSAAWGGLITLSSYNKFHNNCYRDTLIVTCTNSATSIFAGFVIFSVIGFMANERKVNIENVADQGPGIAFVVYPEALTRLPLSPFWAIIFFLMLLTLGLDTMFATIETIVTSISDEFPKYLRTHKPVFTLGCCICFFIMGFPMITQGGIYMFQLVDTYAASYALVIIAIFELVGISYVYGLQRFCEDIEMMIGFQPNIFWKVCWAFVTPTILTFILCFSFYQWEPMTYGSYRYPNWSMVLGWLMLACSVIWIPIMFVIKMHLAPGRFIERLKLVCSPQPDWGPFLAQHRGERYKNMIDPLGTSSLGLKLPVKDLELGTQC
- Method: GlyT2 inhibitory activity: inhibition of [14C]-glycine uptake in COS-7 cells transfected with human GlyT2
- Assay Setup: Cos-7 cells stably transfected with human GlyT2; 20 μM 14C-glycine, 2 h at 37° C.
Parameter Measured: IC50

Known IC50 results, listed for orientation:
Nc1ccccc1NCCNCc1cc(C(=O)N2CCCCC2)cs1	> 10 µM
CC(C)Oc1ccccc1N(C)CCN(C)Cc1cccc(C(=O)N2CCCCC2)c1	> 10 µM

Turning now to a further compound:
Q. Given `COc1ccccc1-c1ccccc1NCCNCc1cccc(C(=O)N2CCCCC2)c1` , state its recorded IC50.
A. > 10 µM
